# Test system: KM12 colon
# method-description: NCI tumour cell line growth inhibition, 48 h
Reported values of TGI for individual entries

In the examples that follow, each entry is paired with its recorded TGI.
# compound, reported-endpoint, readout-value
data = [
    ("O=C(CN1CCN(c2cc3c(cc2F)c(=O)c(C(=O)O)cn3C2CC2)CC1)Nc1nc(-c2ccc(Cl)cc2)cs1", "TGI", "> 100 µM"),
    ("O=C1Nc2ccccc2Cn2c1cc1oc(-c3ccccc3)cc12", "TGI", "> 100 µM"),
    ("COc1ccc(S(=O)(=O)NC2=NCCN2C(=S)SN2CCn3c2nsc3=S)cc1", "TGI", "37.7 µM"),
]

Q: Which TGI value belongs to `Clc1ccc(-c2nnc(-c3cccc4ccccc34)o2)cc1Cl` ?
A: > 100 µM

Q: Which TGI value belongs to C[N+](C)(C)CC1CCC/C1=N/O (stereo unspecified) ?
A: > 100 µM

Q: Which TGI value belongs to O=C(CC1(O)C(=O)Nc2ccc(Br)cc21)c1ccc(Cl)cc1Cl (stereo unspecified) ?
A: > 100 µM

Recorded values, source PubChem BioAssay (NCI).
